// provenance: patent US12558424B2

system: A673; test: A673 CTG; format: cell-based; settings: Homo sapiens; A673 cells
pEC50: −log10 of the molar value.
Reported pEC50 values are given for each entry in this list.

# MOLECULE, pEC50
records = [
    ("Cc1ccc(C#Cc2cccc(-c3nn(-c4nc(C(=O)O)cs4)c(CC4CC4)c3Cc3ccc(S(N)(=O)=O)c(F)c3)c2)s1 [Compound 420737]", 6.66),
    ("Cc1ccc(C#Cc2cc(-c3nn(-c4nc(C(=O)O)cs4)c(CC4CC4)c3Cc3ccc(S(N)(=O)=O)c(F)c3)ccc2F)s1 [Compound 390006]", 6.52),
]

====

The molecules below have reported IC50 for LDH(A) (Homo sapiens, UniProt P00338).

# LINE NOTATION, TESTED TARGET, IC50 / nM
records = [
    ("Cc1ccc(C#Cc2cc(-c3nn(-c4nc(C(=O)O)cs4)c(CC4CC4)c3Cc3ccc(S(N)(=O)=O)c(F)c3)ccc2F)s1", "LDH(A) (Homo sapiens, UniProt P00338)", 80),
    ("Cc1ccc(C#Cc2cccc(-c3nn(-c4nc(C(=O)O)cs4)c(CC4CC4)c3Cc3ccc(S(N)(=O)=O)c(F)c3)c2)s1", "LDH(A) (Homo sapiens, UniProt P00338)", 68),
]

====

The compounds below have reported pIC50 for LDA(B) (Homo sapiens).
pIC50: −log10 of the molar value.

# LINE NOTATION, pIC50
rows = [
    ("Cc1ccc(C#Cc2cccc(-c3nn(-c4nc(C(=O)O)cs4)c(CC4CC4)c3Cc3ccc(S(N)(=O)=O)c(F)c3)c2)s1", 7.36),
    ("Cc1ccc(C#Cc2cc(-c3nn(-c4nc(C(=O)O)cs4)c(CC4CC4)c3Cc3ccc(S(N)(=O)=O)c(F)c3)ccc2F)s1", 7.28),
]

====

assay: PK AUC after IV and PO dosing; conditions: in vivo; IV 10 mg/kg
Reported AUC values are given for each entry in this list.
REPORTED ENDPOINT: AUC (ng·h/mL)

# MOLECULE, MEAS VALUE
records = [
    ("Cc1ccc(C#Cc2cc(-c3nn(-c4nc(C(=O)O)cs4)c(CC4CC4)c3Cc3ccc(S(N)(=O)=O)c(F)c3)ccc2F)s1 [Compound 390006]", 10600),
    ("Cc1ccc(C#Cc2cccc(-c3nn(-c4nc(C(=O)O)cs4)c(CC4CC4)c3Cc3ccc(S(N)(=O)=O)c(F)c3)c2)s1 [Compound 420737]", 16500),
]
